Provenance of the data: ChEMBL document CHEMBL1134540

# reported logD; entries follow
# Assay Overview: Partition coefficient (logD7.4)
# Test Conditions: octanol/water, pH 7.4
Lab note: record the figure alone, no unit after it.

As a guide, the following entries are already answered.
1. CN1C(=O)C(O)N=C(c2ccccc2Cl)c2cc(Cl)ccc21 (stereo not given); 2.72
2. c1ccc2ncccc2c1; 2.03

logD recorded for this compound, CN1CCN(CC(=O)N2c3ccccc3C(=O)Nc3cccnc32)CC1 [PIRENZEPINE] , is -0.61

logD recorded for this compound, "CNC(=C[N+](=O)[O-])NCCSCc1csc(CN(C)C)n1" , is -0.52

logD recorded for this compound, "CN1CCC[C@H]1c1cccnc1" , is 0.4

logD recorded for this compound, "COC(=O)[C@H]1[C@@H](OC(=O)c2ccccc2)C[C@@H]2CC[C@H]1N2C" , is 1.05

logD recorded for this compound, CC(C)N(CCC(C(N)=O)(c1ccccc1)c1ccccn1)C(C)C (stereo not given) [DISOPYRAMIDE] , is -0.66
